# protocol: Bioanalytical assessment of plasma and brain concentrations after mouse DC-MES assay
# Format: in vivo
# settings: mouse, plasma, intraperitoneal, 5 mg/kg, Study17136, 5 mg/kg, WT mouse DC-MES acute; read-out: Mean [Palsma]
# Experimental: Approximately 0.5 mL of blood was collected from each mouse at the end of the assay via cardiac puncture under deep anesthesia. The blood samples were collected in a syringe and transferred to tubes containing EDTA. Blood was stored at 4 °C until centrifuged within 30 min of collection. […] Extraction of plasma samples was carried out by protein precipitation using acetonitrile. […] The samples were analyzed by UHPLC-ESI-MS/MS as described below. […]
parameter-measured: concentration at 2 h
Give the number first and the unit second.

# input molecule: O=C1NC(=O)C(c2ccccc2)(c2ccccc2)N1 [phenytoin, Phenytoin] ; wanted: its concentration at 2 h
# output 11.5 µM

---

# protocol: Bioanalytical assessment of plasma and brain concentrations after 6 Hz assay
# Format: in vivo, mouse
# settings: Scn8a^N1768D/+, mouse, in vivo, 56 mg/kg, Study18011, 56 mg/kg, SCN8A mouse 6HZ; read-out: Mean [Brain]
parameter-measured: concentration at 2 h (µM)
Numbers only, in µM.

# input compound: COC[C@@H](NC(C)=O)C(=O)NCc1ccccc1 [lacosamide, Lacosamide, reference compound] ; wanted: its concentration at 2 h
# output 28.3

---

# system-name: hNaV1.6 (Homo sapiens)
# Construct: expression vector containing the full-length cDNA coding for specific human and mouse sodium channel α-subunit; expressed in transfected cells
# Sequence (Q9UQD0 whole entry): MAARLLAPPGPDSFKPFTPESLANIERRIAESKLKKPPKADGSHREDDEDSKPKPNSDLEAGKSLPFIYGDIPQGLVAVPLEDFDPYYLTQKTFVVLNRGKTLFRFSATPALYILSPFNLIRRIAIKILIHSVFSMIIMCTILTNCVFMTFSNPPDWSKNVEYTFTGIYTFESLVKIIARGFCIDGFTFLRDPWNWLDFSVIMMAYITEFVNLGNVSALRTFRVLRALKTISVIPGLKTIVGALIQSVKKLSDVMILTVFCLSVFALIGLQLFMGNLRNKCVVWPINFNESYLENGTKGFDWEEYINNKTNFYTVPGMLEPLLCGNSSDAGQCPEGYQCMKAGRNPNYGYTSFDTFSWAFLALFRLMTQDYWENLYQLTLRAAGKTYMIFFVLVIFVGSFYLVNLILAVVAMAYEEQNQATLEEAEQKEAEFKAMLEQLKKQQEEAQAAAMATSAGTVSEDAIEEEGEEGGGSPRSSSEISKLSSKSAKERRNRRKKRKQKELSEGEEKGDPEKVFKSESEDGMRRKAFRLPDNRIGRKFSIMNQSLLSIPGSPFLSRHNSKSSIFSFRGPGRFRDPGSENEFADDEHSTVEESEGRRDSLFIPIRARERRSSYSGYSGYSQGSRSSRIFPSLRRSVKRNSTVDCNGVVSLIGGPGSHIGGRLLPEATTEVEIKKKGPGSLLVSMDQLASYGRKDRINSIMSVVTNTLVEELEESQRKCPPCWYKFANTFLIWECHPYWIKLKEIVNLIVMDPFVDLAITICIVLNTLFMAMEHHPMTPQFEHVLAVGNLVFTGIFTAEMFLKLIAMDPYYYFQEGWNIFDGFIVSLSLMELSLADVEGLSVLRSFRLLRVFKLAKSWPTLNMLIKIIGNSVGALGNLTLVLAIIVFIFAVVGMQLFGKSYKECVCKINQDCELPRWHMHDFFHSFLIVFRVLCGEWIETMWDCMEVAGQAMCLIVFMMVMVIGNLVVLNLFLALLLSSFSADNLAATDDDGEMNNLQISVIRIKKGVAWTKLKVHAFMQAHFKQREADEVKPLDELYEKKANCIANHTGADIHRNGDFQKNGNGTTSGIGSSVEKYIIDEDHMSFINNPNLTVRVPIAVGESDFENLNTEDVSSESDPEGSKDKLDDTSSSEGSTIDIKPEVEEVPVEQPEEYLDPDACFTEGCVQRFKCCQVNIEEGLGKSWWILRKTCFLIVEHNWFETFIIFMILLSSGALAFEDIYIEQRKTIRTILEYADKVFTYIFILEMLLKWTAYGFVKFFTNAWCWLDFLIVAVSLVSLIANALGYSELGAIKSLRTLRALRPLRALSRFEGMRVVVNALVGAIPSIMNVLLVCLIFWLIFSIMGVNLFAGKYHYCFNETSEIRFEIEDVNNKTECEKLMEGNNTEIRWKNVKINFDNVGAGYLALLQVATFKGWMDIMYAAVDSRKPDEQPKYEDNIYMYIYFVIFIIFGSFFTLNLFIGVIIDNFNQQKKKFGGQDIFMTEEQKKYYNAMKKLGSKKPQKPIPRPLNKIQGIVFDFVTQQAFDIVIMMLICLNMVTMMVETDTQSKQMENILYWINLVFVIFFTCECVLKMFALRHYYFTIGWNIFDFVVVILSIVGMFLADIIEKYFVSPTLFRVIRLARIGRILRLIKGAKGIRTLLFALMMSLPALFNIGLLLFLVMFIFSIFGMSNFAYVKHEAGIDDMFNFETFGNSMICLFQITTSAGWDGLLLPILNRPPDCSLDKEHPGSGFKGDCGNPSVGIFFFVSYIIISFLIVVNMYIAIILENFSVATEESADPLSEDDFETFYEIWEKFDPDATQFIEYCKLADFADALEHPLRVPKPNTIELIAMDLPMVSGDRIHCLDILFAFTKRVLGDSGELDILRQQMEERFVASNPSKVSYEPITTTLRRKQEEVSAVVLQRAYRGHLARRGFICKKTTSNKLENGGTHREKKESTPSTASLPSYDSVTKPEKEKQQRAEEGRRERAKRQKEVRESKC
# Sequence (Q92913 1-192 isoform Q92913-2 partner): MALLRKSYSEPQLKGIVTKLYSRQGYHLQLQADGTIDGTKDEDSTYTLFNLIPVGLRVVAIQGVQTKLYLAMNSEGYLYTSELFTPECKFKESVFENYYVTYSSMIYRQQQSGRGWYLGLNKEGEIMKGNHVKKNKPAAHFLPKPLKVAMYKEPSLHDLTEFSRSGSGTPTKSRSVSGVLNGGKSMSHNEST
# protocol: Automated patch-clamp, rested state 'Peak' current (Vh -120 mV)
# Format: cell-based
parameter-measured: IC50

# input compound: Cc1cc(S(=O)(=O)Nc2cscn2)c(F)cc1N(C)[C@H]1CCN(Cc2ccccc2)C1 [NBI-921352] ; wanted: its IC50
# output 36 µM

---

# system-name: hNaV1.6(N1768D) resurgent currents (Homo sapiens, UniProt Q9UQD0, N1768D)
# Construct: expression vector containing the full-length cDNA coding for specific human and mouse sodium channel α-subunit
# Sequence (Q9UQD0 whole entry N1768D): as the sequence (Q9UQD0 whole entry) above, with N1768D counted along it
# Sequence (Q92913 1-192 isoform Q92913-2 partner): as the sequence (Q92913 1-192 isoform Q92913-2 partner) above
# protocol: Resurgent current inhibition
# settings: NaVβ4 peptide 200 μM intracellular; read-out: apparent IC50 resurgent currents from N1768D channels
parameter-measured: IC50

# input compound: "Cc1cc(S(=O)(=O)Nc2cscn2)c(F)cc1N(C)[C@H]1CCN(Cc2ccccc2)C1" ; wanted: its IC50
# output 37 nM

---

# protocol: Bioanalytical assessment of plasma and brain concentrations after 6 Hz assay
# Assay type: in vivo, mouse
# settings: Scn8a N1768D/+, mouse, brain, oral, 3 mg/kg, Study16162, 3 mg/kg, SCN8A mouse 6HZ; read-out: Mean [Brain]
parameter-measured: concentration at 2 h (µM)
Numbers only, in µM.

# input molecule: NC(=O)N1c2ccccc2C=Cc2ccccc21 [carbamazepine, Carbamazepine, reference compound] ; wanted: its concentration at 2 h
# output 4.89

---

# protocol: Bioanalytical assessment of plasma and brain concentrations after rat DC-MES assay
# Assay type: in vivo
# settings: rat, in vivo, 100 mg/kg, Study18068, 100 mg/kg, Rat DC-MES; read-out: Mean [Brain]
parameter-measured: concentration at 2 h (µM)
One number for each entry, in µM.

# input compound: COC[C@@H](NC(C)=O)C(=O)NCc1ccccc1 [lacosamide, Lacosamide, reference compound] ; wanted: its concentration at 2 h
# output 38.2

---

# protocol: Bioanalytical assessment of plasma and brain concentrations after mouse DC-MES assay
# Assay type: in vivo
# settings: mouse, plasma, oral, 10 mg/kg, Study17134, 10 mg/kg, WT mouse DC-MES acute; read-out: Mean [Palsma]
parameter-measured: concentration at 2 h

# input compound: NC(=O)N1c2ccccc2C=Cc2ccccc21 [carbamazepine, Carbamazepine, reference compound] ; wanted: its concentration at 2 h
# output 16.6 µM

Reference source for all entries: paper PMC8903829
